Measured reverse-splicing fitness accompanies every entry in the list below.
B1: Azoarcus group I ribozyme (parent)
chain: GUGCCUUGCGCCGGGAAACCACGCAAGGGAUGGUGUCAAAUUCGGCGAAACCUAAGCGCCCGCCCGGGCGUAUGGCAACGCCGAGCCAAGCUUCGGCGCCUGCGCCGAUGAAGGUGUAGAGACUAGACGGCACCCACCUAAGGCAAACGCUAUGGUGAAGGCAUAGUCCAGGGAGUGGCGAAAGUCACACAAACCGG

# Variants of: B1
# methodSummary: reverse-splicing fitness (ratio to wild type); higher = more active; in vitro selection; Mg2+ level not given

• C82G A111C A120U U176G = 0.00466
• C82U A111U A120C A145G C169G U176A = 0.0152
• C82G A111U A120U C150A C169A U176C = 0.00429
• C82U A145U C169U = 0.0139

Name the recorded reverse-splicing fitness for A111C A145U C150G .
0.219

# lookup: reverse-splicing fitness of A111U A120U C150A C169G U176C
0.00445

Query: reverse-splicing fitness; subject: C82G A111U A120U C150A C169A U176G
0.00233

So what does the record say about reverse-splicing fitness for C82U A145G C150A C169G U176C ?
0.0265

Looking for the measured reverse-splicing fitness of C82G A111U A120G A145U C150A C169U U176A , can you help?
0.0183
